# key: entry, value: IC50
- System: Jurkat
- Procedure Summary: WST-1 cytotoxicity assay
- Format: cell-based
- Cond: Homo sapiens, 48 hour treatment
Give your result as the value with the unit written after it.

Molecule	IC50
CCCCCCCC/C=C/CCCCCCCC(=O)OC[C@H]1O[C@@H](n2cnc(N)nc2=O)[C@H](O)[C@@H]1O [CP, 5-azacytidine 5′-elaidate]	0.88 µM

**Query** Value lookup for IC50; key = Nc1ncn([C@@H]2O[C@H](CO)[C@@H](O)[C@H]2O)c(=O)n1 [5-AzaC, 5-azacytidine, reference compound]
**Result** 5.32 µM

----------
- Procedure Summary: Metabolic stability in pooled human plasma at 37° C.
- Assay type: in vitro ADME
- Cond: 3 μM
Reported Endpoint: half-life at 3 μM (h)
Quick note: give the figure in h, leave out the unit.

**Query** Entry CCCCCCCC/C=C/CCCCCCCC(=O)OC[C@H]1O[C@@H](n2cnc(N)nc2=O)[C@H](O)[C@@H]1O [CP, 5-azacytidine 5′-elaidate] : reported half-life at 3 μM = ?
**Result** 2.35
